test system: MDA-MB-231; assay: Antiproliferative activity against human MDA-MB-231 cells assessed as inhibition of cell viability by MTT assay; format: functional, cell-based; conditions: Homo sapiens, MDA-MB-231; read-out: IC50
Property Measured: IC50 (µg/mL)
Form entry: value (µg/mL) — number only.

Consider the worked cases shown below.
C=C1CC[C@@H]2[C@](C)(CCC[C@]2(C)C(=O)O)[C@H]1CC/C(C)=C/COC(C)=O; 14.8
C=C(CC[C@H]1C(=C)CC[C@H]2[C@@](C)(CO)CCC[C@]12C)C(=O)CO; 19.9
COc1cc(C[C@H]2C(=O)OC[C@@H]2Cc2ccc(OC)c(OC)c2)ccc1O; 1.1

Req: Which IC50 reading was recorded for the compound "COc1cccc2c1C(=O)c1c(O)c3c(c(O)c1C2=O)C[C@@](O)(C(=O)CO)C[C@@H]3O[C@H]1C[C@H](N)[C@H](O)[C@H](C)O1" ?
Resp: 0.6

Req: Which IC50 reading was recorded for the compound "C=C(C=O)CC[C@H]1C(=C)CC[C@@H]2[C@]1(C)CCC[C@@]2(C)O" ?
Resp: 14.8

Req: Which IC50 reading was recorded for the compound "COc1cc([C@@H]2c3cc4c(cc3C[C@H]3COC(=O)[C@@H]32)OCO4)cc(OC)c1OC" ?
Resp: 0.07

Req: Which IC50 reading was recorded for the compound "C=C(C=O)CC[C@H]1C(=C)CC[C@@H]2[C@]1(C)CCC[C@]2(C)C(=O)O" ?
Resp: 14.1

====

tested on: Neutrophil; assay: Anti-inflammatory activity against human neutrophils assessed as inhibition of fMLF/CB-induced superoxide anion generation at 10 uM preincubated for 5 mins followed by fMLF addition after priming with CB for 3 mins and measured after 10 mins by spectrophotometric analysis relative to control; format: functional
Property Measured: inhibition at 10 µM (%)
Form entry: value (%) — number only.

C=C1CC[C@@H]2[C@](C)(CCC[C@]2(C)C(=O)O)[C@H]1CC/C(C)=C/CO; 78

Req: Which inhibition at 10 µM reading was recorded for the compound "C=C1CC[C@H]2[C@@](C)(CO)CCC[C@]2(C)[C@H]1CC/C(C)=C/CO" ?
Resp: 50.7

Req: Which inhibition at 10 µM reading was recorded for the compound "C=C1CC[C@@H]2[C@](C)(CO)CCC[C@@]2(C)[C@@H]1CCC(C)=O" ?
Resp: 33.5

Req: Which inhibition at 10 µM reading was recorded for the compound "COc1cc(C[C@H]2COC(=O)[C@@H]2Cc2ccc(O)c(OC)c2)ccc1O" ?
Resp: 95.2
